Target: PLK3 (Homo sapiens)
Sequence (Q9H4B4 whole entry): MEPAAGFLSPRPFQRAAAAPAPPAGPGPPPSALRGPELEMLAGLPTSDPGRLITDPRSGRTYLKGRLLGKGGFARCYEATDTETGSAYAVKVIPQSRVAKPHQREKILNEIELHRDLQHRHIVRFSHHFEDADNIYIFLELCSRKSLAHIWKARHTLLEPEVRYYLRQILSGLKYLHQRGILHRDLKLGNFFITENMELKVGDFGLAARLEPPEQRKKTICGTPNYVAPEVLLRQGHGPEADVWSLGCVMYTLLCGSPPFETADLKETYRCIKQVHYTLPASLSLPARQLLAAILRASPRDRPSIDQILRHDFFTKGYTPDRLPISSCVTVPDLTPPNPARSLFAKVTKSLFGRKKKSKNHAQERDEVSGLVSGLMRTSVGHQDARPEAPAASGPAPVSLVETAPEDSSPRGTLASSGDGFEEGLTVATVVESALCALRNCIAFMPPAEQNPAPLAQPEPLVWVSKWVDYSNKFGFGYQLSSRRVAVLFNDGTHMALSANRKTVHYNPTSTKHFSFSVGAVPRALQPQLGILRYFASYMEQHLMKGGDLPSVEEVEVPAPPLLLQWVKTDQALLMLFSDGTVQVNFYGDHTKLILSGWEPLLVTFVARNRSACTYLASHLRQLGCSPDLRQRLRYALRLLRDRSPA
Test: PLK TR-FRET peptide assay, PLK3
Type: biochemical
Details: GST-PLK3, 15 min reaction, read-out: Plk3 IC50
pIC50: −log10 of the molar value.
Recorded pIC50, one value per entry.

Some molecules with recorded pIC50:
molecule	assayResult
CC[C@@H]1C(=O)N(C)c2cnc(-n3ccnc3-c3ccc(F)cc3Cl)nc2N1CCC(F)(F)F [Example 282]	4.30 to 5.00
CC[C@@H]1C(=O)N(C)c2cnc(-n3ccnc3-c3ccccc3)nc2N1C(C)C1CC1 (some centres unmarked) [Example 350]	> 6.00
CC[C@@H]1C(=O)N(C)c2cnc(-c3ccncc3N)nc2N1C1CCCC1 [Example 91]	5.00 to 6.00
CC[C@@H]1C(=O)N(C)c2cnc(-c3cncnc3-c3nccs3)nc2N1C(C)C [Example 197]	5.00 to 6.00
CC[C@]12CCCCN1c1nc(-n3ccnc3-c3cccc(F)c3)ncc1N(C)C2=O [Example 265]	< 4.30
CC[C@@H]1C(=O)N(C)c2cnc(-c3cn[nH]c3-c3nccs3)nc2N1C1CC(F)(F)C1 [Example 353]	5.00 to 6.00
CC[C@@H]1C(=O)N(C)c2cnc(-c3ccncc3)nc2N1C(C)C [Example 23]	< 4.30

Proceed to the following item.
-- ask Output measured pIC50 for this item: CC[C@@H]1C(=O)N(C)c2cnc(-n3ccnc3-c3ccc(F)cc3)nc2N1C(C)C [Example 212]
-- reply 5.00 to 6.00
